pIC50 values, listed per item
# Target Or System: 5-α-reductase I enzyme (Rattus norvegicus, UniProt P24008)
# Sequence (P24008 1-259): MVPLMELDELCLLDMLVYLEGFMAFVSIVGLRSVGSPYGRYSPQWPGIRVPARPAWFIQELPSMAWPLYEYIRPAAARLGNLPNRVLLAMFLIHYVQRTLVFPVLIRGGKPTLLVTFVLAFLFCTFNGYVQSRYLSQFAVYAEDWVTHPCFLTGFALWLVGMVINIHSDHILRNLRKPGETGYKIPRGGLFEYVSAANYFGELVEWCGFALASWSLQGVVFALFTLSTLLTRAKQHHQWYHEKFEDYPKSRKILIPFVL
pIC50: −log10 of the molar value.

The examples below pair each entry with its known result.
CC(C)(C)NC(=O)[C@H]1CC[C@H]2[C@@H]3[C@H](Cl)C[C@H]4NC(=O)CC[C@]4(C)[C@H]3CC[C@]12C [1,2-Dihydro-7-α-chloro-finasteride, 1,2-dihydro-7-α-chloro-finasteride] : 7.00 to 7.28
CC(=O)O[C@H]1C[C@H]2NC(=O)C=C[C@]2(C)[C@H]2CC[C@]3(C)[C@@H](C(=O)NC(C)(C)C)CC[C@H]3[C@H]12 [7-β-Acetoxy-finasteride, 7-β-acetoxy-finasteride] : 6.16 to 6.41
CC(C)(C)NC(=O)[C@H]1CC[C@H]2[C@@H]3[C@@H](O)C[C@H]4NC(=O)CC[C@]4(C)[C@H]3CC[C@]12C [1,2-Dihydro-7-β-hydroxy-finasteride, 1,2-dihydro-7-β-hydroxy-finasteride] : 6.31 to 6.34

Query block: Observed pIC50 on 5-α-reductase I enzyme (Rattus norvegicus, UniProt P24008) for CC(C)(C)NC(=O)C1CC(O)C2C3CCC4NC(=O)C=CC4(C)C3CCC12C (stereo not drawn) [15-β-hydroxy-finasteride] , please.
Result block: 6.07 to 6.09

Query block: Observed pIC50 on 5-α-reductase I enzyme (Rattus norvegicus, UniProt P24008) for CC(C)(C)NC(=O)[C@H]1CC[C@H]2[C@@H]3[C@H](Cl)C[C@H]4NC(=O)C=C[C@]4(C)[C@H]3CC[C@]12C [7-α-Chloro-finasteride, 7-α-chloro-finasteride] , please.
Result block: 6.46 to 6.51

Values from patent US20020035260A1
